# tgt: Rat MAGL (rMAGL) (Rattus norvegicus, UniProt Q8R431)
# Construct: made in house; host or cells: E. coli
# Sequence (Q8R431 whole entry): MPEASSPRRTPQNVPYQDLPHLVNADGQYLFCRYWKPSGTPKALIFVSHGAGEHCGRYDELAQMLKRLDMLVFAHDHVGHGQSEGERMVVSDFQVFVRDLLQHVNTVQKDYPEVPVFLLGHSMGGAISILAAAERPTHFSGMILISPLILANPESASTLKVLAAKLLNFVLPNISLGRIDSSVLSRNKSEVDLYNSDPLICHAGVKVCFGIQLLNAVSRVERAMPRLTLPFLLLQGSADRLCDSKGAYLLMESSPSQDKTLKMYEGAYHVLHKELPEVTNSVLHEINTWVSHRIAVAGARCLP
# procedure.text: Fluorescent assay protocol for rMAGL
# Format: biochemical
# condition.notes: recombinant rat MAGL, procedure as for hMAGL; read-out: IC50 rMAGL
Provide the reported IC50 of each item.

Q: Which IC50 is reported for this compound? NC(=O)c1cccc(-c2cccc(NC(=O)N3CCN(c4ccccc4)CC3)c2)c1 [Example 11]
Ans: > 1 µM

Q: Which IC50 is reported for this compound? O=C(N1C[C@@H]2C[C@H]1CN2c1cccc(F)c1)n1cnc(-c2ccccc2)c1 [Example 97]
Ans: > 1 µM

Q: Which IC50 is reported for this compound? N#Cc1cccc(OC(=O)N2CCC(OC(c3ccc(Cl)cc3)c3cccnc3Cl)CC2)c1 (stereo not shown) [Example 53]
Ans: 0.01 to 0.1 µM

Q: Which IC50 is reported for this compound? N#Cc1cccc(-c2cccc(NC(=O)N3CCN(Cc4cccc(-c5ccccc5)c4)CC3)c2)c1 [Example 17]
Ans: > 1 µM

Q: Which IC50 is reported for this compound? O=C(Oc1cccc(Cl)n1)N1CCC(C(c2ccccc2)c2ccccc2)CC1 [Example 54]
Ans: 0.11 to 1 µM

Q: Which IC50 is reported for this compound? O=C(N1CCN(C(c2ccccc2)c2ccccc2)CC1)n1nnnc1Cc1ccccc1 [Example 31]
Ans: > 1 µM

Q: Which IC50 is reported for this compound? N#Cc1cccc(-c2cncc(NC(=O)N3CCC(c4ccccc4)CC3)c2)c1 [Example 16]
Ans: > 1 µM

Q: Which IC50 is reported for this compound? N#Cc1cccc(OC(=O)N2CC(OCc3ccc(Cl)cc3)C2)c1 [Example 74]
Ans: > 1 µM

Q: Which IC50 is reported for this compound? O=C(N1CC(N2CCC(Cc3ccccc3)CC2)C1)n1cnc(-c2ccccc2)c1 [Example 84]
Ans: > 1 µM

Q: Which IC50 is reported for this compound? NC(=O)c1cccc(-c2cccc(NC(=O)N3CCN(Cc4cccc(Oc5ccccc5)c4)CC3)c2)c1 [Example 18]
Ans: > 1 µM

Q: Which IC50 is reported for this compound? Cc1ccc(N2CCN(C(=O)n3cnc(-c4ccccc4)c3)CC2C)cc1 (stereo not shown) [Example 25]
Ans: > 1 µM

Q: Which IC50 is reported for this compound? NC(=O)c1cccc(-c2cccc(NC(=O)N3CCN(C4c5ccccc5-c5ccccc54)CC3)c2)c1 [Example 8]
Ans: > 1 µM

Q: Which IC50 is reported for this compound? CC1CN(C(=O)n2cnc(-c3ccccc3)c2)CCN1c1cccc(O)c1 (stereo not shown) [Example 27]
Ans: > 1 µM

Q: Which IC50 is reported for this compound? O=C(Nc1cccnc1)N1CC(OCc2ccc(Br)cc2)C1 [Example 82]
Ans: > 1 µM

Q: Which IC50 is reported for this compound? O=C(N1C[C@@H]2C[C@H]1CN2c1ccccn1)n1cnc(-c2ccccc2)c1 [Example 96]
Ans: > 1 µM

Q: Which IC50 is reported for this compound? NC(=O)c1cccc(-c2cccc(NC(=O)N3CCN(Cc4cnc5ccccc5c4)CC3)c2)c1 [Example 6]
Ans: 0.11 to 1 µM

Q: Which IC50 is reported for this compound? O=C(N1CC(N2CCC(c3ccccc3)CC2)C1)n1cncn1 [Example 90]
Ans: 0.01 to 0.1 µM

Q: Which IC50 is reported for this compound? C[C@H]1CN(Cc2cccc(Oc3ccccc3)c2)CCN1C(=O)Nc1cncc(-c2cccc(C#N)c2)c1 [Example 5]
Ans: > 1 µM

Q: Which IC50 is reported for this compound? NC(=O)c1cccc(OC(=O)N2CC(OCc3ccc(Cl)cc3)C2)c1 [Example 77]
Ans: 0.11 to 1 µM
